Source of measurements: the RepoRT retention time repository (doi:10.1016/j.jhazmat.2019.121712)

Catalogue of LC retention time readings, one per entry.
test: Thermo Scientific Acclaim RSLC 120 C18, 100 × 2.1 mm, 2.2 µm, 30 °C; A: 90% water + 10% methanol + 0.01% formic acid + 5 mM ammonium formate; B: methanol + 0.01% formic acid + 5 mM ammonium formate; gradient (min/%B) 0.1/1 3/39 14/99.9 16/99.9; details: stereoisomer not certain
Reply with just the number (in min).

STRUCTURE	EXPERIMENTAL READOUT	MEASURED VALUE
CCCC(C(=O)OCCN(CC)CC)(c1ccccc1)c1ccccc1	LC retention time	9.41
COC=C(C(=O)O)c1ccccc1Oc1cc(Oc2ccccc2C#N)ncn1	LC retention time	8.18
CCCSC(=O)N(CCC)CCC	LC retention time	11.5
CC(=O)Nc1ccc(-c2ccc(C=NN3CC(=O)NC3=O)o2)cc1	LC retention time	5.67
Nc1ccc(S(N)(=O)=O)cc1	LC retention time	2.23
CCCCc1c(C)nc(NCC)[nH]c1=O	LC retention time	8
CCOP(=S)(OCC)SCSCC	LC retention time	11.4

Now examine the next entry.
Q. Request the reported LC retention time associated with CSc1nc(N=[N+]=[N-])nc(NC(C)C)n1
A. 9.71
